# test.system: ATP-dependent translocase ABCB1 (Homo sapiens)
# Sequence (P08183 whole entry): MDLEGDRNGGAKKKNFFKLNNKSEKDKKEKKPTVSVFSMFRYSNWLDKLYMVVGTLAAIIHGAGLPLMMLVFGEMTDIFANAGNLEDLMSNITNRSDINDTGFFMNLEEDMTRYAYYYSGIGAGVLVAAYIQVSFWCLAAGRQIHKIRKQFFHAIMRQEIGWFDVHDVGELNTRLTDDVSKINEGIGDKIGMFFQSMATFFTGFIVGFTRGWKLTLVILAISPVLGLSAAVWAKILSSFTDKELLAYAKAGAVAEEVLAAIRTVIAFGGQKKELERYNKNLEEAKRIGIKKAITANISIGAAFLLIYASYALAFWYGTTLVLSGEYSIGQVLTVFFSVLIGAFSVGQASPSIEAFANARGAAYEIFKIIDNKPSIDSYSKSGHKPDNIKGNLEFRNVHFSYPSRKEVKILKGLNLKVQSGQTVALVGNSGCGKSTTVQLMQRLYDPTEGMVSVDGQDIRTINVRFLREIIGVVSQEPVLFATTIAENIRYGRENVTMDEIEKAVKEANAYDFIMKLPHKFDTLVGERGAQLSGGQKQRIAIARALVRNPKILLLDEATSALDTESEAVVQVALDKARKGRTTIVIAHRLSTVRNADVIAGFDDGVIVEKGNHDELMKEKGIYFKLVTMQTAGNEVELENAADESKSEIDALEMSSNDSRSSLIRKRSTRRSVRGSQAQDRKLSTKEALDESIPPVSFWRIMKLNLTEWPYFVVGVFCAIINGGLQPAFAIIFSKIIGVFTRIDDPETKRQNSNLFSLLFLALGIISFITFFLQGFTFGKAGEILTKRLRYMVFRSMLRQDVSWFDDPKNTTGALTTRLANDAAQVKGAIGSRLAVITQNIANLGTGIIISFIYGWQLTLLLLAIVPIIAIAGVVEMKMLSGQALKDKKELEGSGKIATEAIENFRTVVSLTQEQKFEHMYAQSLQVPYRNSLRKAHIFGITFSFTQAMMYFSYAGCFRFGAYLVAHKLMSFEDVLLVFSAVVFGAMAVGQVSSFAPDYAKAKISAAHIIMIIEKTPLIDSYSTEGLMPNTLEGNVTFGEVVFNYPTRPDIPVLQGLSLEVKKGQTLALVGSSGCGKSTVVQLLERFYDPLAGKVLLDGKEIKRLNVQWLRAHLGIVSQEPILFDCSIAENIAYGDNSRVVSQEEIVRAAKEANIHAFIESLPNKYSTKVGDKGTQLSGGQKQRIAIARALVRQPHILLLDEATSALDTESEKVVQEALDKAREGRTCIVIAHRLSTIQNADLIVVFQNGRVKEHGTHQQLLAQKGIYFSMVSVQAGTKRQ
# assay.notes: Reversal of P-glycoprotein-mediated multidrug resistance in human MDR1 gene transfected mouse L5178Y cells assessed as fluorescence activity ratio at 40 ug/ml by flow cytometry
# Format: cell-based
endpoint: Ratio

{"columns": ["input.smiles", "Ratio"],
 "data": [
  ["CC[N+](C)(CC)CCOc1ccc(C(=O)N2C/C(=C\\c3ccc(Cl)cc3)C(=O)/C(=C/c3ccc(Cl)cc3)C2)cc1.[I-]", 1.85]
]}

[I] Cl.O=C1/C(=C/c2ccc(Cl)cc2)CN(C(=O)c2ccc(OCCN3CCCCC3)cc2)C/C1=C\c1ccc(Cl)cc1
[II] CCN(CC)CCOc1ccc(C(=O)N2C/C(=C\c3ccc(C)cc3)C(=O)/C(=C/c3ccc(C)cc3)C2)cc1.Cl
Rank I against II by their Ratio values and give the higher one. Indicate which entry you chose by stating its label. I
(I: 133, II: 66.6)

[I] CC[N+](C)(CC)CCOc1ccc(C(=O)N2C/C(=C\c3ccc(C)cc3)C(=O)/C(=C/c3ccc(C)cc3)C2)cc1.[I-]
[II] CC[N+](C)(CC)CCOc1ccc(C(=O)N2C/C(=C\c3ccccc3)C(=O)/C(=C/c3ccccc3)C2)cc1.[I-]
Of I and II , which carries the smaller reported Ratio figure? // output: label of the selected item II
(II: 1.05, I: 114)

[P] CCN(CC)CCOc1ccc(C(=O)N2C/C(=C\c3ccc(Cl)cc3)C(=O)/C(=C/c3ccc(Cl)cc3)C2)cc1.Cl
[Q] Cl.O=C1/C(=C/c2ccc([N+](=O)[O-])cc2)CN(C(=O)c2ccc(OCCN3CCCCC3)cc2)C/C1=C\c1ccc([N+](=O)[O-])cc1
Which record shows the lower Ratio: the first, P , or the second, Q ? Your answer should be the label of the entry you select. Q
(Q: 51.5, P: 99.7)
